The entries below come with measured IC50 values attached.
Biological target: Abl (Homo sapiens, UniProt P00519)
Sequence (P00519 242-493 limits assumed): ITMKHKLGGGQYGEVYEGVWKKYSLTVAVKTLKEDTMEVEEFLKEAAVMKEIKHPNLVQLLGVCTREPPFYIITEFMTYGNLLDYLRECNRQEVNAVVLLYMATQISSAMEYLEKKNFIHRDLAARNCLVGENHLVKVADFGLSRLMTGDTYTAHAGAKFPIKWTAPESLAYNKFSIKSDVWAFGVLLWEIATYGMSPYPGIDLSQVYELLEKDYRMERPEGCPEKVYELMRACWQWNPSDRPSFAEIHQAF
Assay: In vitro kinase assay (32P peptide phosphorylation), WT Abl
Assay type: biochemical
Details: Table 1a; read-out: IC50 WT Abl

{"columns": ["Compound", "Target or system", "IC50"],
 "data": [
  ["Nc1ncnc2c1c(Cc1cccc(NC(=O)Nc3cccc(C(F)(F)F)c3)c1)nn2C1CCCC1 [BB10]", "Abl (Homo sapiens, UniProt P00519)", "1000 to 5000 nM"]
]}

Abl (Homo sapiens, UniProt P00519) assay, compound CC(C)(C)OC(=O)N1CC[C@H](n2nc(-c3ccc(NC(=O)Nc4cccc(C(F)(F)F)c4)cc3)c3c(N)ncnc32)C1 [AD78] , recorded IC50 = 1000 to 5000 nM

Abl (Homo sapiens, UniProt P00519) assay, compound CC(C)(C)n1nc(Cc2cccc(NC(=O)Nc3cccc(C(F)(F)F)c3)c2)c2c(N)ncnc21 [AD26] , recorded IC50 = < 1000 nM

Abl (Homo sapiens, UniProt P00519) assay, compound CC(C)(C)OC(=O)N1CC[C@@H](n2nc(-c3ccc(NC(=O)Nc4cccc(C(F)(F)F)c4)cc3)c3c(N)ncnc32)C1 [AD79] , recorded IC50 = 1000 to 5000 nM

----------
Biological target: c-Src (Gallus gallus, UniProt P00523)
Assay: In vitro kinase assay (32P peptide phosphorylation), WT Src
Assay type: biochemical
Settings: Table 1a; read-out: IC50 WT Src
pIC50: −log10 of the molar value.
Measured parameter: pIC50

Known results for compounds:
{"columns": ["Compound", "pIC50"],
 "data": [
  ["Nc1ncnc2c1c(Cc1cccc(NC(=O)c3cccc(C(F)(F)F)c3)c1)nn2Cc1ccccc1", "5.30 to 6.00"],
  ["Nc1ncnc2c1c(-c1ccc(NC(=O)Nc3cccc(C(F)(F)F)c3)cc1)nn2[C@@H]1CCN(C(=O)Nc2cccc(C(F)(F)F)c2)C1 [AD73c]", "5.30 to 6.00"],
  ["Nc1ncnc2c1c(Cc1cccc(NC(=O)Nc3cccc(C(F)(F)F)c3)c1)nn2Cc1ccccc1", "5.30 to 6.00"],
  ["Cn1nc(Cc2ccc(NC(=O)Nc3cccc(C(F)(F)F)c3)cc2)c2c(N)ncnc21", "5.30 to 6.00"],
  ["Nc1ncnc2c1c(Cc1cccc(NC(=O)c3cccc(C(F)(F)F)c3)c1)nn2CC1CC1", "< 5.30"]
]}

Noted for CC(C)(C)OC(=O)N1CC[C@H](n2nc(-c3ccc(NC(=O)Nc4cccc(C(F)(F)F)c4)cc3)c3c(N)ncnc32)C1 : its pIC50 reads > 6.00

Noted for Cn1nc(Cc2cccc(NC(=O)Nc3cccc(C(F)(F)F)c3)c2)c2c(N)ncnc21 : its pIC50 reads 5.30 to 6.00

Noted for CC(C)(C)OC(=O)N1CC[C@@H](n2nc(-c3ccc(NC(=O)Nc4cccc(C(F)(F)F)c4)cc3)c3c(N)ncnc32)C1 : its pIC50 reads > 6.00
